ASSAY_REMARKS: PK after subcutaneous administration of solutions in dogs
Format: in vivo, Beagle dog
PARTICULARS: male, beagle, dog, plasma, sc, 12 mg/kg, dog #3; 48.0 h; SC 12 mg/kg, 400 mg/mL in 15% water/85% PEG 300
REPORTED_METRIC: concentration at 48 h (nM)
Answers are plain numbers, in nM.

CC(C)(C#Cc1ccc(-c2ccc(Cl)c3c(NS(C)(=O)=O)nn(CC(F)(F)F)c23)c([C@H](Cc2cc(F)cc(F)c2)NC(=O)Cn2nc(C(F)(F)F)c3c2C(F)(F)[C@@H]2C[C@H]32)n1)S(C)(=O)=O has a reported concentration at 48 h of 13.2

---

ASSAY_REMARKS: PK after subcutaneous administration of solutions in rats
Assay type: in vivo, Wistar Han rat
PARTICULARS: male, Wistar Han, rat, plasma, sc, 50 mg/kg, rat #3; 840 h; SC 50 mg/kg, 300 mg/mL in 15% water/85% PEG 300
Method: Formulations containing the compound of Formula (Ia) were prepared as aqueous solutions or oral formulations and administered subcutaneously to rats, dogs, cynomolgus monkey, and/or rhesus monkey. A solution of the compound of Formula (Ia) in 10% ethanol, 13% water, and 77% PEG 200 (400 mg/mL) was prepared. The solution was administered subcutaneously to dogs at a dose of 12 mg/kg and rats at a dose of 50 mg/kg and the pharmacokinetic (PK) profile was determined. […]
REPORTED_METRIC: concentration at 840 h (nM)
Numbers only, in nM.

CC(C)(C#Cc1ccc(-c2ccc(Cl)c3c(NS(C)(=O)=O)nn(CC(F)(F)F)c23)c([C@H](Cc2cc(F)cc(F)c2)NC(=O)Cn2nc(C(F)(F)F)c3c2C(F)(F)[C@@H]2C[C@H]32)n1)S(C)(=O)=O has a reported concentration at 840 h of 302

---

ASSAY_REMARKS: PK after oral administration in liquid-filled capsules in dogs
Assay type: in vivo, beagle dogs
PARTICULARS: male, beagle, dog, plasma, oral, 7.5 mg, as above (100% glycerol monocaprylocaprate LFC, 100 mg/mL); calculated based on AUC0-72h vs average IV AUC0-72h; mean ± SD, n=6
REPORTED_METRIC: bioavailability (%)
Give bare numbers, in %.

CC(C)(C#Cc1ccc(-c2ccc(Cl)c3c(NS(C)(=O)=O)nn(CC(F)(F)F)c23)c([C@H](Cc2cc(F)cc(F)c2)NC(=O)Cn2nc(C(F)(F)F)c3c2C(F)(F)[C@@H]2C[C@H]32)n1)S(C)(=O)=O has a reported bioavailability of 16

---

ASSAY_REMARKS: PK after subcutaneous administration of solutions in dogs
Format: in vivo, Beagle dog
PARTICULARS: beagle, dog, plasma, sc, 6 mg/kg, dog; SC 6 mg/kg; 75 mg/mL solution (w/w %: 29.21 water, 62.55 PEG 300, 6.97 sodium salt of Formula (Ia), 1.68 poloxamer 188); mean ± SD, n=3; read-out: AUC0-24h
REPORTED_METRIC: AUC(0-t) (µM·h)
Answers are plain numbers, in µM·h.

CC(C)(C#Cc1ccc(-c2ccc(Cl)c3c(NS(C)(=O)=O)nn(CC(F)(F)F)c23)c([C@H](Cc2cc(F)cc(F)c2)NC(=O)Cn2nc(C(F)(F)F)c3c2C(F)(F)[C@@H]2C[C@H]32)n1)S(C)(=O)=O has a reported AUC(0-t) of 5.88
